Entry source: patent US20250163167A1

measured.on: T1, hIL10Rb-his (Sino Biological, Catalog#10945) (human, UniProt Q08334 20-220)
T1 construct: Bought; also called Sino Biological cat#10945-H08H; not shown: C-terminal poly-His tag
T1 sequence: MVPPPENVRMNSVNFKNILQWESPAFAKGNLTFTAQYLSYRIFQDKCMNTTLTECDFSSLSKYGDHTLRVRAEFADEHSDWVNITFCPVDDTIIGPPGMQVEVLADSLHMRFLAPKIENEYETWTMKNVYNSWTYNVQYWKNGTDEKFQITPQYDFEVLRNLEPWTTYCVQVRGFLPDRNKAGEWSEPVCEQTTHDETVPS
experiment.notes: SPR Biacore T200; biotinylated dual VHH captured on CAP biotin chip, hIL10Rb-his analyte; 1:1 Langmuir fit
Listed binders paired with reported koff
// note: answer is a bare numeric in s⁻¹

Worked examples, 3 binders total:
[
  {
    "binder": "hIL10Rb_VHH1-hIL10Ra_VHH9-biotin (bispecific antibody, conjugated to biotin (site not stated)) QVQLQESGGGSVQAGGSLRLSCAASGYTYSSGCMGWFRQAPGKEREAVAAINSDGSTSYADSVKGRFTISKDNAKNTLYLQMNSLKPEDTAMYYCAAEPYCSGGYPRWSVAEFGYWGQGTQVTVSSGGGSQVQLQESGGGSVQAGGSLRLSCAVSGYAYSTYCMGWFRQAPGKEREGVAAIDSGGSTSYADSVKGRFTISKDNAKNTLYLRMNSLKPEDTAMYYCAAVPPPPDGGSCLFLGPEIKVSKADFRYWGQGTQVTVSS",
    "observed": 0.0018
  },
  {
    "binder": "hIL10Ra_VHH17-hIL10Rb_VHH16 biotin (bispecific antibody, conjugated to biotin (site not stated)) QVQLQESGGGSVQAGGSLRLSCAASGYSNCSYDMTWYRQAPGKEREFVSAIHSDGSTRYADSVKGRFFISQDNAKNTVYLQMNSLKPEDTAMYYCKTDPLHCRAHGGSWYSVRANYWGQGTQVTVSSGGGSQVQLQESGGGSVEAGGSLRLSCAASGYTHSSYCMGWFRQAPGKEREGVAAIDVDGSTTYADSVKGRFTISKDNAKNTLYLQMNSLKPEDTGMYYCAAEFADCSSNYFLPPGAVRYWGQGTQVTVSS",
    "observed": 0.00045
  },
  {
    "binder": "hIL10Ra_VHH12-hIL10Rb_VHH27 biotin (bispecific antibody, conjugated to biotin (site not stated), also called IL10 VHH DR509 biotin; DR509) QVQLQESGGGSVQAGGSLRLSCTVSGYTYSSNCMGWFRQAPGKEREGVATIYTGGGNTYYADSVKGRFTISQDNAKNTVYLQMNNLKPEDTAMYYCAAEPLSRVYGGSCPTPTFDYWGQGTQVTVSSGGGSQVQLQESGGGSVQTGGSLRLSCAASGYTYLRGCMGWFRQAPGKEREGVAVMDVVGDRRSYIDSVKGRFTISRDNAANSVYLQMDNLKPEDTAMYYCTAGPNCVGWRSGLDYWGQGTQVTVSS",
    "observed": 0.003
  }
]

// switching to the query binder
Q: # koff lookup, item hIL10Rb_VHH12-hIL10Ra_VHH8 biotin (bispecific antibody, conjugated to biotin (site not stated)) QVQLQESGGGSVQAGGSLRLSCAASGYTYSSYCMGWFRQAPGKEREGVAHIDSDGSTSYADSVKGRFTISKDNAKNTLYLQMNSLKPEDTAMYYCAADPIPGPGYCDGGPNKYWGQGTQVTVSSGGGSQVQLQESGGGSVQAGGSLRLSCAASGYTYSMYCMGWFRQAPGKEREGVAQINSDGSTSYADSVKGRFTISKDNAKNTLYLQMNSLKPEDTAMYYCAADSRVYGGSWYERLCGPYTYEYNYWGQGTQVTVSS
A: 0.00068
